system: T1, HLA-A*0201 (human)
T1 construct: Empty class I on TAP-deficient T2 cells, stabilised by the added peptide; also called HLA-A2; MHC class I (A2 allele) on T2 cells
experimentDescription: T2 cell binding, flow cytometry; half-maximal binding
Measured EC50 by item
experimentalEndpoint: EC50 (µM)

binder="KLSEKIFYI [SSX2 41-49(A42L, V49I)]" experimentalendpoint=EC50 numericresult=5.68
binder="KASEKIFYI [SSX2 41-49(V49I)]" experimentalendpoint=EC50 numericresult=14
binder="FVSEKIFYM [SSX2 41-49 (K41F, A42V, V49M)]" experimentalendpoint=EC50 numericresult=17.8
binder="KVSEKIFYI [SSX2 41-49(A42V, V49I)]" experimentalendpoint=EC50 numericresult=13.9
